% inhibition formation SNARE complex: recorded values
- testedSystem: SNARE complex (VAMP, syntaxin and SNAP-25) (UniProt P60880)
- Sequence (P60880 whole entry, one chain of several): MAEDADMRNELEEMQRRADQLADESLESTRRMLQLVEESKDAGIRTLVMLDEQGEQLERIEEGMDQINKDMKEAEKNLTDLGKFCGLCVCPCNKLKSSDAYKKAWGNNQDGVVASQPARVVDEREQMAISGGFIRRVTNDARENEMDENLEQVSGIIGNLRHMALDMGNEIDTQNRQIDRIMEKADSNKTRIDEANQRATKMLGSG
- experimentalProtocol: SDS-PAGE of SNARE complex: VAMP + syntaxin + compound, then SNAP-25; image analysis; compound at 1 mM
Non-standard residues stand in square brackets, D forms with d. *: point of attachment. Palmitoyl = CCCCCCCCCCCCCCCC(=O)*; Met(O) = CS(=O)CC[C@H](N)C(=O)O
assayMetric: % inhibition formation SNARE complex (%)

>>> reading("Ac-DHFLNWM-NH2 [Ac-SEQ ID NO:34-NH2]")
14
>>> reading("Ac-DHFLDWM-NH2 [Ac-SEQ ID NO:25-NH2]")
83
>>> reading("Palmitoyl-DHFQQRM-NH2 [Palm-SEQ ID NO:24-NH2]")
17
>>> reading("Ac-DHFQQRM-NH2 [Ac-SEQ ID NO:24-NH2]")
48
>>> reading("Ac-DHFLDW[Met(O)]-NH2 [Ac-SEQ ID NO:56-NH2]")
40
>>> reading("Ac-EHLKQWM-NH2 [Ac-SEQ ID NO:1-NH2]")
59
>>> reading("Palmitoyl-EDLKRWM-NH2 [Palm-SEQ ID NO:14-NH2]")
41
